Quick reference: IC50 of the listed items.
Target desc: NK3 (Homo sapiens, UniProt P29371)
Sequence (P29371 1-465): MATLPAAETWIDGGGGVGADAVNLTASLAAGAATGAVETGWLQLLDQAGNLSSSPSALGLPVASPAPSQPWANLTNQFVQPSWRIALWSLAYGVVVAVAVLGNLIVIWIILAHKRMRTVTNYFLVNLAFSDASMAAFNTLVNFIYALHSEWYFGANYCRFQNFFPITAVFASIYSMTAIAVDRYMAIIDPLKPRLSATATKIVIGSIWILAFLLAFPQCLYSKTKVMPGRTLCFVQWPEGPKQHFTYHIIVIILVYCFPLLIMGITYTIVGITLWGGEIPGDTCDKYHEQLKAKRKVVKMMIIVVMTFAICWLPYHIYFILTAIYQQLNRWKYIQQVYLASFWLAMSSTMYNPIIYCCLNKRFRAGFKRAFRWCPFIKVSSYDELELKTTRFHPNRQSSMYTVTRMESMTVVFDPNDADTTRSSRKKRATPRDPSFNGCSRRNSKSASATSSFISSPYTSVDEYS
Test: Signal transduction (ST), intracellular Ca++ (FLIPR), NK3
Type: cell-based
Test context: read-out: pIC50 NK3 (converted)
Use nM as the unit, but write only the number.

Example results:
{"Compound": "O=C(c1ccsc1)N1CC[C@@H](N2CCN([C@H]3CCN(C(=O)c4cc(C(F)(F)F)cc(C(F)(F)F)c4)[C@H](Cc4ccc(Cl)c(Cl)c4)C3)CC2)C1 [Compound 287]", "IC50 [nM]": 251}
{"Compound": "COc1ccc(NC(=NC#N)N2CCC(N3CCN([C@H]4CCN(C(=O)c5cc(C(F)(F)F)cc(C(F)(F)F)c5)[C@H](Cc5ccccc5)C4)CC3)C2)cc1 (some centres unmarked) [Compound 355]", "IC50 [nM]": 6310}
{"Compound": "O=C(c1ccc(CCO)s1)N1CCC(N2CCN(C3CCN(C(=O)c4cc(C(F)(F)F)cc(C(F)(F)F)c4)C(Cc4ccccc4)C3)CC2)C1 (centres unmarked) [Compound 359]", "IC50 [nM]": 2000}
{"Compound": "O=C(C1CCOC1)N1CCC(N2CCN(C3CCN(C(=O)c4cc(C(F)(F)F)cc(C(F)(F)F)c4)C(Cc4ccc(F)c(F)c4)C3)CC2)C1 (single isomer, unassigned) [Compound 270]", "IC50 [nM]": 1260}
{"Compound": "CC1(C)OC(=O)C[C@H]1C(=O)N1CCC(N2CCN([C@H]3CCN(C(=O)c4cc(C(F)(F)F)cc(C(F)(F)F)c4)[C@H](Cc4ccccc4)C3)CC2)C1 (some centres unmarked) [Compound 404]", "IC50 [nM]": 79.4}

Query compound follows.
May I ask what IC50 has been recorded for O=C(c1ccccc1Cl)N1CCC(N2CCN(C3CCN(C(=O)c4cc(C(F)(F)F)cc(C(F)(F)F)c4)C(Cc4ccccc4)C3)CC2)C1 (single isomer, unassigned) [Compound 159] ? 631

---

Target desc: NK1 (Homo sapiens)
Sequence (P25103 whole entry): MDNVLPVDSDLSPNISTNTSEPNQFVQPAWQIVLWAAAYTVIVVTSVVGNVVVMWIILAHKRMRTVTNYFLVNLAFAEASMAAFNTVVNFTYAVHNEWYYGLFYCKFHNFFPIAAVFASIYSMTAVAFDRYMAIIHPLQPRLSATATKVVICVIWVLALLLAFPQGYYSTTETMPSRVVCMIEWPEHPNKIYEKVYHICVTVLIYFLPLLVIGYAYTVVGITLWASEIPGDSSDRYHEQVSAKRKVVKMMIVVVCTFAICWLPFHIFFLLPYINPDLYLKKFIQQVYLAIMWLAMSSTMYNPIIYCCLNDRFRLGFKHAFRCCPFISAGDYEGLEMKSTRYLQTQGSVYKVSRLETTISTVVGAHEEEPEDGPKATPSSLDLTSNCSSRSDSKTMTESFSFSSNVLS
Test: Signal transduction (ST), intracellular Ca++ (FLIPR), NK1 antagonistic activity
Assay type: cell-based
Test context: read-out: pIC50 NK1 (converted)
Param label: returns 1 when IC50 < 20 nM, returns -1 otherwise, including exact equality.

{"Compound": "CC(C)(C)CC(=O)N1CCC(N2CCN([C@H]3CCN(C(=O)c4cc(C(F)(F)F)cc(C(F)(F)F)c4)[C@H](Cc4ccccc4)C3)CC2)C1 (some centres unmarked) [Compound 200]", "Assigned category": 1}
{"Compound": "O=C(c1c(Cl)cccc1Cl)N1CCC(N2CCN(C3CCN(C(=O)c4cc(C(F)(F)F)cc(C(F)(F)F)c4)C(Cc4ccc(F)c(F)c4)C3)CC2)C1 (single isomer, unassigned) [Compound 239]", "Assigned category": 1}
{"Compound": "O=C(c1cc(C(F)(F)F)cc(C(F)(F)F)c1)N1CCC(N2CCN(C3CCN(S(=O)(=O)c4cc(CCOCc5ccccc5)cs4)C3)CC2)CC1Cc1ccccc1 (centres unmarked) [Compound 335]", "Assigned category": -1}
{"Compound": "O=C(C1CC1)N1CCC(N2CCN(C3CCN(C(=O)c4cc(C(F)(F)F)cc(C(F)(F)F)c4)C(Cc4ccc(F)c(F)c4)C3)CC2)C1 (single isomer, unassigned) [Compound 231]", "Assigned category": 1}
{"Compound": "O=C(C(O)c1ccccc1Cl)N1CCC(N2CCN([C@H]3CCN(C(=O)c4cc(C(F)(F)F)cc(C(F)(F)F)c4)[C@H](Cc4ccccc4)C3)CC2)C1 (some centres unmarked) [Compound 334]", "Assigned category": -1}

hey, is IC50 for CC(C)(C)OC(=O)N1CCC(C(=O)N2CCC(N3CCN([C@H]4CCN(C(=O)c5cc(C(F)(F)F)cc(C(F)(F)F)c5)[C@H](Cc5ccccc5)C4)CC3)C2)CC1 (some centres unmarked) [Compound 210] lower than 20 nM or not? 1

Quick one: O=C(c1cc(C(F)(F)F)cc(C(F)(F)F)c1)N1CC[C@H](N2CCN(C3CCN(S(=O)(=O)c4cccc(O)c4)C3)CC2)C[C@H]1Cc1ccccc1 (some centres unmarked) [Compound 348] 1

Quick one: O=C(c1ccccc1)N1CCC(N2CCN(C3CCN(C(=O)c4cc(C(F)(F)F)cc(C(F)(F)F)c4)C(Cc4ccccc4)C3)CC2)C1 (centres unmarked) [Compound 3] -1

Quick one: COCCC(=O)N1CC[C@H](N2CCN([C@H]3CCN(C(=O)c4cc(C(F)(F)F)cc(C(F)(F)F)c4)[C@H](Cc4ccccc4)C3)CC2)C1 [Compound 413] -1
